molecular target: CD16α (FcγRIIIa) V158 allotype, CD16α-6His (UniProt P08637 P08637:17-208); test: filter; dot blot; details: tags: 6His
Sequence (P08637 17-208, one chain of several): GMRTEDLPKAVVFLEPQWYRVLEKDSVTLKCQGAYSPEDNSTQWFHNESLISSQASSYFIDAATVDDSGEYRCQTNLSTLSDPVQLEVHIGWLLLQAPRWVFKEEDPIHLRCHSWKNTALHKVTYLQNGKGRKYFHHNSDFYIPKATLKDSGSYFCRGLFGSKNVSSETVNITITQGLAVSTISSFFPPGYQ
Value type: pKd
The read-out pKd is expressed as -log10 of concentration in moles per litre.

Q: // pKd lookup, key: CLN0123 (ssDNA) DNA: GGAGGGAAAAGTTATCAGGCAGAGGGGAGGGTCGGGTATCGGCGTGTTCGGGGGATCTGCGATTAGTTTTGGAGTACTCGCTCC
Ans: 6.64
